Tested on: Sam68 (KHDRBS1)
Experiment: Sam68 small-molecule binders, primary screen, biochemical, small-molecule microarray, 635 nm fluorescence (AID 1125);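 also: score merges 667 nm channel intensity with signal to noise over triplicate slides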
Settings: small-molecule microarray binding, higher = more signal
value.kind: composite z-score
Write the number on its own, no unit after it.

Take a look at these entries with their results.
compound	composite z-score
CO[C@H]1O[C@H](CO)[C@@H](OC(=O)c2ccc(Br)cc2)[C@@H]2OC(=O)[C@H](Cc3ccccc3)C/C=C/C[C@@H](Cc3ccccc3)C(=O)O[C@@H]12	-0.148
CC(C)OC(=O)CC(=O)CC(O)c1ccc([N+](=O)[O-])cc1 (centres undefined)	0.543

Problem: Item under review: "CN(C)CCCNC(=O)[C@@H]1c2ccccc2C(=O)N(C2CCCCC2)[C@H]1c1ccc(CO)cc1" . Reported composite z-score?
Solution: 1.29

Problem: So what does the record say about composite z-score for "CN(C)C(=O)[C@]1(CCS(=O)(=O)c2ccccc2)N=C(c2ccc(OCCCO)cc2)O[C@@H]1c1ccccc1" ?
Solution: 1.3

----------
Test system: Neuregulin-1 EGF-like domain
Test: binders of neuregulin-1 EGF-like domain, primary screen, biochemical, small-molecule microarray, 635 nm fluorescence (AID 1081);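 also: binding of the protein to compounds printed on small-molecule microarray slides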
Conditions: small-molecule microarray binding, higher = more signal
Record condition met whenever composite z-score is at 1 or higher; record condition not met when lower.

// known answers, use as guide
compound	class.label
C[C@@H]1ON(c2ccc(I)cc2)[C@H](c2ccc(OC(=O)OC(C)(C)C)cc2)[C@H]1C(=O)N1C(=O)OC[C@H]1Cc1ccccc1	condition not met
COCCOC(=O)N1C(=O)[C@@]2(c3ccccc31)[C@H](c1ccccc1OCCO)N1[C@H](c3ccccc3)[C@H](c3ccccc3)OC(=O)[C@H]1[C@@H]2C(=O)N1CCCCCCC1	condition met
O=C1C[C@@](C(=O)NCc2ccccc2)(c2ccc([N+](=O)[O-])cc2)[C@@H](c2ccc(CO)cc2I)N1CC12CC3CC(CC(C3)C1)C2	condition met
COCCOC(=O)N1C(=O)[C@@]2(c3cc(C#CCC(C(=O)OC)C(=O)OC)ccc31)[C@H](c1ccc(OCCO)cc1)N1[C@H](c3ccccc3)[C@H](c3ccccc3)OC(=O)[C@H]1[C@@H]2C(=O)Nc1nc2ccccc2s1	condition met
C=C[C@@H](OC)[C@H](OC(=O)Nc1ccc(SC)cc1)c1ccc(OCCO)cc1	condition met

Problem: Check if composite z-score >= 1 (inclusive). Item: "CN(C)C(=O)[C@@]1(Cc2ccccc2)COC(c2ccc(OCCCO)cc2)=N1"
Solution: condition not met

Problem: Reported composite z-score reaches at least 1 for CC(C)c1ccc(NN2C(C(O)Cc3ccccc3)C=CC3C(=O)N(c4ccccc4)C(=O)C32)cc1 (stereo not drawn) ?
Solution: condition not met

Problem: Test whether the compound CC(C)N1CC=CC23O[C@@H]4/C=C\CCCOC(=O)C4[C@H]2C(=O)N(CCCCCCO)[C@@H]3C1=O (stereo partly drawn) records composite z-score of 1 or higher.
Solution: condition met

Problem: Evaluate C=CCC(OC(C)=O)[C@@H]1[C@@H](N(Cc2cc3ccccc3o2)C(=O)c2ccc(-c3ccccc3)cc2)c2cc(OCCCO)ccc2N1C(=O)Cc1ccc(OC)cc1 (stereo partly drawn) : composite z-score at minimum 1?
Solution: condition not met

Problem: Dear colleague, could you confirm whether "COCC1=C2[C@@H](CCc3ccccc3)OB(O)C[C@@H]2[C@@H]2C(=O)N(C)C(=O)[C@@H]2C1" has composite z-score at or above 1?
Solution: condition not met

----------
Experiment: small-molecule microarray binders of probe aXIP, primary screen, biochemical, NeuroSMM set, 635/667 nm fluorescence (AID 1119);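 also: probe is the protein aXip251-270 applied at 1 µg/mL to compound-printed slides; binding of probe to printed compounds measured as 667 nm fluorescence plus signal to noise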
Conditions: higher = more signal, called active from +8 up or from −8 down
Mark 0 for composite Z-score values under -0.2, and 1 for everything at or above.

Completed entries (count: 5):
molecule	class.label
CCCC=C(CCC)[C@@H](NS(=O)(=O)c1cccc2cccnc12)c1ccc(-c2ccccc2)cc1	1
CO[C@H]1O[C@H](CO)[C@@H](OC(=O)Nc2ccc(C#N)cc2)[C@@H]2OC(=O)[C@H](Cc3cccc(Br)c3)C/C=C/C[C@@H](Cc3cccc(Br)c3)C(=O)O[C@@H]12	1
COc1ccc(C#Cc2ccc3c(c2)[C@]2(C(=O)N3)[C@H](c3ccc(OCCO)cc3)N3[C@H](c4ccccc4)[C@H](c4ccccc4)OC(=O)[C@H]3[C@@H]2C(=O)N2CCc3cc(OC)c(OC)cc3C2)cc1	0
NCCCCCNC(=O)[C@@H]1C[C@@H]2C(=O)N3CCC[C@H]3C(=O)N2[C@@H]1c1ccc(O)cc1	0
Cc1ccc(S[C@]2(C(=O)NCc3ccccc3)CC(=O)N(Cc3cc(C(F)(F)F)cc(C(F)(F)F)c3)[C@@H]2c2ccc(CO)cc2I)cc1	0

Problem: API: above_or_equal(metric=composite Z-score, cutoff=-0.2) for item CC1CC/C=C\[C@H]2OC34C=CCN(CCN5CCOCC5)C(=O)[C@H]3N(C(C)CO)C(=O)[C@@H]4C2C(=O)O1 (stereo partly specified)
Solution: 1

----------
Assay: cell viability in Huh7 cells, primary screen, cytotoxicity control for HCV replication inhibitor project, CellTiter-Glo luminescence, basal, 48 h (AID 1143);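 also: Huh7 hepatoma cells carrying a hepatitis C replication reporter with no stimulus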
Conditions: Huh7 HCV replicon, higher = more signal, called active from +8 up or from −8 down
value.kind: z-score
Write the value as a bare number.

Record excerpt, results attached:
molecule	recorded.number
COCCOC(=O)N1C(=O)[C@@]2(c3cc(C#CCNC(N)=O)ccc31)[C@H](c1ccc(OCCO)cc1)N1[C@H](c3ccccc3)[C@H](c3ccccc3)OC(=O)[C@H]1[C@@H]2C(N)=O	0.0121
CC(=O)n1cc(C(O)C2C=CC3C(=O)N(c4ccccc4)C(=O)C3N2Nc2ccc(C(C)C)cc2)c2ccccc21 (stereo not given)	-0.609
COC(=O)[C@@]1(Cc2ccc(F)cc2)[C@H]2c3cc(C(=O)N(C)C)n(Cc4ccc(O)c(OC)c4)c3C[C@H]2CN1C(=O)c1ccccc1	-2.65

Problem: Please give the measured z-score for this molecule: "COCCOC(=O)N1C(=O)[C@@]2(c3ccccc31)[C@H](c1ccccc1OCCO)N1[C@H](c3ccccc3)[C@H](c3ccccc3)OC(=O)[C@H]1[C@@H]2C(N)=O"
Solution: -4.2

Problem: Give the measured z-score of "CCOC(=O)C1=CC[C@@H](c2ccccc2)N(S(=O)(=O)c2ccc(C)cc2)[C@H]1c1cccc(OC)c1" .
Solution: -2.97

----------
Tested on: XIP peptide (Xip251-270) binding
Test: small-molecule binders of XIP peptide, primary screen, biochemical, small-molecule microarray, fluorescence 635/667 nm, 0.1 µg/mL protein (AID 1182)
Details: fluorescent protein binding, 635 nm, higher = more signal, called active from +8 up or from −8 down
composite z-score class ranges: LOW = under 0.1, MID = from 0.1 up to 0.7, HIGH = 0.7 and over

compound	class.label
COc1cc(C(O)C2C=CC3C(=O)N(Cc4ccccc4)C(=O)C3N2n2cnnc2)cc(OC)c1OC (stereo not given)	MID
COc1ccc(C#Cc2ccc3c(c2)[C@]2(C(=O)N3)[C@H](c3ccc(OCCO)cc3)N3[C@H](c4ccccc4)[C@H](c4ccccc4)OC(=O)[C@H]3[C@@H]2C(=O)N2CCc3cc(OC)c(OC)cc3C2)cc1	MID
C=CCC(OC(C)=O)[C@@H]1[C@@H](N(Cc2ccc(-c3cccc(C(F)(F)F)c3)o2)C(=O)c2ccc(C)cc2)c2cc(OCCCO)ccc2N1C(=O)Cc1ccc(OC)cc1 (stereo not given in full)	LOW
CCOC(=O)C1=CCC(c2ccco2)N(S(=O)(=O)c2ccc(C)cc2)C1 (stereo not given)	MID
C=CCNC(=O)[C@@H]1[C@H]2C(=O)O[C@H](c3ccccc3)[C@H](c3ccccc3)N2[C@H](c2ccc(O)cc2)[C@@]12C(=O)N(C(=O)OCCOC)c1ccc(C#CCCO)cc12	HIGH

Problem: Which class holds "CCOC(=O)C1=CC[C@@H](c2ccccc2)N(S(=O)(=O)c2ccc(C)cc2)[C@H]1c1cccc(OC)c1" ?
Solution: LOW

Problem: Form field 'band' for "C#C[C@@H](CC)O[Si](C#CCCCC#N)(C(C)C)C(C)C"
Solution: HIGH

Problem: Class (by measured composite z-score) for "[N-]=[N+]=NCc1ccccc1[C@@H]1OC(c2ccc(OCCCO)cc2)=N[C@]1(Cc1ccccc1N=[N+]=[N-])C(=O)NCCN1CCOCC1"
Solution: MID

Problem: Band of COc1cc2c(cc1O)C(c1cccs1)N(Cc1sc3ccccc3c1Cl)CC2 (stereo not given) ?
Solution: HIGH

Problem: Which composite z-score category applies to "COC(=O)c1c2oc(c1C(=O)OC)C(=O)N1CCC[C@H]1Cn1nncc1CN(Cc1ccccc1)C(=O)N[C@H](CO)CC2" here?
Solution: LOW

Problem: Which category does the recorded composite z-score put "C=C(/C(=C/C[C@H](OC(=O)c1ccncc1)c1ccccc1OCCO)c1cnc2ccccc2c1)C(C)C" in?
Solution: LOW

Problem: Could you tell me which band "CC(C)CNC(=O)[C@@H]1c2ccccc2C(=O)N(C2CCCCC2)[C@H]1c1ccc(CO)cc1" belongs to?
Solution: HIGH

Problem: State the band of "COC(=O)[C@@]1(Cc2ccc(F)cc2)[C@H]2c3cc(C(=O)N4CCCC4)n(C)c3C[C@H]2CN1C(=O)c1ccccc1"
Solution: MID

Problem: Please indicate the class for "COC(=O)[C@@]1(Cc2ccccc2CN=[N+]=[N-])N=C(c2ccc(OCCCO)cc2)O[C@H]1c1ccccc1" based on its composite z-score.
Solution: HIGH
